Biological target: T1, SNTG1, Q9NSN8
T1 sequence (Q9NSN8 52-150, limits assumed, looked up): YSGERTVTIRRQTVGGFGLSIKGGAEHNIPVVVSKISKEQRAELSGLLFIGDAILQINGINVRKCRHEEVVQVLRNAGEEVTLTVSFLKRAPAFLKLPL
Experiment: holdup assay
Set-up: key: below the threshold = too weak to quantify, mostly under pKd 3.1 to 4
Details: plain residues with an end cap or a label only (N-terminal biotin on a linker: ado-ado)
Everything with pKd lower than 4 is not met; everything else, including exactly 4, is met.

Binder | Category
QGLAERISVL [PRKD2, Q9BZL6] | not met
KKMPSIESDV [GRIN2A, Q12879] | met
SAKVRTVTSV [RASL11B, Q9BPW5] | not met
RHGSCVETSL [TMEM151B, Q8IW70] | met
QGPVETESVV [SLC45A4, Q5BKX6] | met
VDSTVKVWTC [TRAF7, Q6Q0C0] | not met
TASPAKETSF [SLC2A7, Q6PXP3] | not met
